# Tested on: rodent lifetime carcinogenesis bioassay, tumor incidence TD50
# assay info: carcinogenic potency in animals, long-term in vivo studies, CPDB compilation (AID 1745844)
# condition label: mouse; strain B6C3F1; females; inhaled; site: liver; lesion: hepatocellular adenoma + hepatocellular carcinoma + neoplastic nodule; dosed 102 weeks; study length 104 weeks
Provide the recorded TD50 for the entries that follow.
One number for each entry, in mg/kg/day.

Known TD50 results, listed for orientation:
compound: CCC1CO1 (stereo not drawn)
tested system: rodent lifetime carcinogenesis bioassay, tumor incidence TD50
TD50 [mg/kg/day]: 445
//
compound: ClCCl
tested system: rodent lifetime carcinogenesis bioassay, tumor incidence TD50
TD50 [mg/kg/day]: 1430

Q. Given C1CO1 , state its recorded TD50.
A. 149

* * *

# Tested on: rodent lifetime carcinogenesis bioassay, tumor incidence TD50
# assay info: carcinogenic potency in animals, long-term in vivo studies, CPDB compilation (AID 1745844)
# condition label: mouse; strain B6C3F1; females; inhaled; site: lung; lesion: alveolar/bronchiolar carcinoma; dosed 105 weeks; study length 105 weeks
property: TD50 (mg/kg/day)
One number for each entry, in mg/kg/day.

Q. Consider the molecule O=[O+][O-] and give its measured TD50.
A. 2.75

* * *

# Test system: rodent lifetime carcinogenesis bioassay, tumor incidence TD50
# assay info: carcinogenic potency in animals, long-term in vivo studies, CPDB compilation (AID 1745844)
# condition label: rat; strain Wistar-random; males; in feed; site: urinary bladder; lesion: transitional-cell carcinoma; dosed 121 weeks; study length 121 weeks
property: TD50

Q. Record request: TD50 value, item O=C(O)O
A. 54400 mg/kg/day

* * *

# System: rodent lifetime carcinogenesis bioassay, tumor incidence TD50
# assay info: carcinogenic potency in animals, long-term in vivo studies, CPDB compilation (AID 1745844)
# condition label: rat; strain Sprague-Dawley; females; by gavage; site: any site (literature study); lesion: several types; types named in the paper; dosed 52 weeks; study length 127 weeks
property: TD50

Q. GET /values?readout=TD50&item= C=CCl
A. 35.2 mg/kg/day

* * *

# Tested on: rodent lifetime carcinogenesis bioassay, tumor incidence TD50
# assay info: carcinogenic potency in animals, long-term in vivo studies, CPDB compilation (AID 1745844)
# condition label: mouse; strain C57BL; males; by gavage; site: liver; lesion: benign tumor; dosed 50 weeks; study length 72 weeks
property: TD50

Q. Recorded TD50 for CN(C)N=O , please?
A. 0.508 mg/kg/day

* * *

# Test system: rodent lifetime carcinogenesis bioassay, tumor incidence TD50
# assay info: carcinogenic potency in animals, long-term in vivo studies, CPDB compilation (AID 1745844)
# condition label: mouse; strain B6AKF1; males; oral dosing; site: liver; lesion: several types; types named in the paper; dosed 72 weeks; study length 72 weeks
property: TD50 (mg/kg/day)
One number for each entry, in mg/kg/day.

Q. // returns reported TD50 for input CCOC(N)=O
A. 26

* * *

# Test system: rodent lifetime carcinogenesis bioassay, tumor incidence TD50
# assay info: carcinogenic potency in animals, long-term in vivo studies, CPDB compilation (AID 1745844)
# condition label: rat; strain Fischer; females; in feed; site: forestomach; lesion: squamous-cell papilloma; dosed 52 weeks; study length 68 weeks
property: TD50 (mg/kg/day)
Answers are plain numbers, in mg/kg/day.

Q. Which measured TD50 belongs to Nc1nc(-c2ccc([N+](=O)[O-])o2)cs1 , tested on rodent lifetime carcinogenesis bioassay, tumor incidence TD50?
A. 8.94
